ASSAY PROTOCOL: Lipophilicity, log D of the compound at pH 7 at 100 uM by HPLC method
Type: physicochemical
CONDITION DETAILS: buffer
Quick reference for logD at 100 µM among some compounds
Would you mind answering with just the numeric figure?

Known results for compounds:
COMPOUND	logD at 100 µM
COc1cc(-c2cnc(C3CCc4ccc([C@H](C5CC5)[C@H](C)C(=O)O)cc4O3)c(F)c2)c(F)cn1 (stereo in doubt; 30)	2.36
COc1cc(-c2ccc(C3CCc4ccc([C@H](C5CC5)[C@H](C)C(=O)O)cc4O3)nc2)ccn1 (stereo in doubt; 32)	1.74
COc1ccc(F)c(-c2ccc(C3CCc4ccc([C@H](C5CC5)[C@H](C)C(=O)[O-])cc4O3)cc2)c1.[Na+] (stereo in doubt; 14)	2.94
COc1ccc(F)c(-c2ccc(C3CCc4ccc([C@H](C5CC5)[C@H](C)C(=O)[O-])cc4O3)nc2)c1.[Na+] (stereo in doubt; 16)	2.25
COc1ccc(F)c(-c2ccc(C3CCc4ccc([C@H](C5CC5)[C@H](C)C(=O)O)cc4O3)cn2)c1 (stereo in doubt; 18)	2.29

Next up:
// sample COc1cc(-c2ccc(C3CCc4ccc([C@H](C5CC5)[C@H](C)C(=O)[O-])cc4O3)cc2)c(F)cn1.[Na+] (stereo in doubt; 20) , its logD at 100 µM was 2.68
